assayed.target: T1, human FLT3 (FMS-like tyrosine kinase 3) (human, UniProt P36888 27-993)
T1 sequence (looked up): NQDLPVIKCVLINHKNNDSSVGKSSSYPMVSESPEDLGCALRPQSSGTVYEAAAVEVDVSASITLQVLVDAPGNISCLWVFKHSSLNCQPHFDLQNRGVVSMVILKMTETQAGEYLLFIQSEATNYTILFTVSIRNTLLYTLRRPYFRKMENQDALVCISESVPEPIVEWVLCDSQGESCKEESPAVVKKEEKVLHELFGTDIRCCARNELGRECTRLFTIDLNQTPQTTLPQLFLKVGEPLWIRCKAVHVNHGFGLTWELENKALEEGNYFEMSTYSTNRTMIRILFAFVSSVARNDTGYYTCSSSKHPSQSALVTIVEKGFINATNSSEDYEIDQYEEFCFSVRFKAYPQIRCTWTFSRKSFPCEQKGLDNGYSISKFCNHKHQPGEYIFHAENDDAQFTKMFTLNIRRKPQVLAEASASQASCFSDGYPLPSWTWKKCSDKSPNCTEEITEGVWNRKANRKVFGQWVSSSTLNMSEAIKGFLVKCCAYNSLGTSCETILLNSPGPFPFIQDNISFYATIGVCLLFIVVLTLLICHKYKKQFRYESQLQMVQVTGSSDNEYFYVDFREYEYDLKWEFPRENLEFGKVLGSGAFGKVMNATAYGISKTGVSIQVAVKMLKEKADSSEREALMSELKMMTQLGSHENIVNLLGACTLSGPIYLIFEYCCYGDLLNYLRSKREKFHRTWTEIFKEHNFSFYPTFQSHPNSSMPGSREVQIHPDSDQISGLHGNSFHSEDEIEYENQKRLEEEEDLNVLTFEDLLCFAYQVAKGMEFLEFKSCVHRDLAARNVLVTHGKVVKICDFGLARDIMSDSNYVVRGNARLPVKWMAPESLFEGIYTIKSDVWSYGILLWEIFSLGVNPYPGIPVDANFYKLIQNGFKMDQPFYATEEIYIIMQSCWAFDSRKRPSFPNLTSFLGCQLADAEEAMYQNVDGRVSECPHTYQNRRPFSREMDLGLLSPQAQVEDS
assay.text: cell-based or functional assay
As shown below, each of these binders has a reported EC50 in AML5 proliferation assay value.
Write the answer as a number in nM, unit excluded.

binder	EC50 in AML5 proliferation assay (nM)
Humanized VH1 x Humanized VL3 (antibody, V domains shown) VH: EVQLLESGGGLVQPGGSLRLSCAPSGFTFSNYGMAWVRQAPGKGLEWVSSIHSGGGDTYYRDSVKGRFTISRDNSKNTLYLQMNSLRAEDTAVYYCARGRTPTGYYFDHWGQGTMVTVSS VL: AIQLTQSPSSLSASVGDRVTITCRASEGIHNGLAWYQQKPGKAPKLLIYNANSLHSRVPSRFSGSGSGTDFTLTISSLQPEDFATYFCQQYYDYPLTFGQGTKLEIK	0.105

stdin: Suppose we examine the binder Humanized VH2 x Humanized VL1 (antibody, V domains shown) VH: EVQLVESGGGLVQPGGSLRLSCAASGFTFSNYGMAWVRQAPGKGLEWVASIHSGGGDTYYRDSVKGRFTISRDNAKNSLYLQMNSLRAEDTAVYYCARGRTPTGYYFDHWGQGTMVTVSS VL: DIQMTQSPSSLSASVGDRVTITCRASEGIHNGLAWYQQKPGKVPKLLIYNANSLHSGVPSRFSGSGSGTDFTLTISSLQPEDVATYFCQQYYDYPLTFGQGTKLEIK ; what EC50 in AML5 proliferation assay value has been reported?
stdout: 0.08

stdin: Suppose we examine the binder Humanized VH4 x Humanized VL1 (antibody, V domains shown) VH: QVQLVESGGGVVQPGRSLRLSCAASGFTFSNYGMAWVRQAPGKGLEWVASIHSGGGDTYYRDSVKGRFTISRDNSKNTLYLQMNSLRAEDTATYYCARGRTPTGYYFDHWGQGTMVTVSS VL: DIQMTQSPSSLSASVGDRVTITCRASEGIHNGLAWYQQKPGKVPKLLIYNANSLHSGVPSRFSGSGSGTDFTLTISSLQPEDVATYFCQQYYDYPLTFGQGTKLEIK ; what EC50 in AML5 proliferation assay value has been reported?
stdout: 0.082

stdin: Suppose we examine the binder Humanized VH4 x Humanized VL4 (antibody, V domains shown) VH: QVQLVESGGGVVQPGRSLRLSCAASGFTFSNYGMAWVRQAPGKGLEWVASIHSGGGDTYYRDSVKGRFTISRDNSKNTLYLQMNSLRAEDTATYYCARGRTPTGYYFDHWGQGTMVTVSS VL: DIQMTQSPSSLSASVGDRVTITCRASEGIHNGLAWYQQKPGKAPKRLIYNANSLHSRVPSRFSGSGSGTEFTLTISSLQPEDFATYYCQQYYDYPLTFGQGTKLEIK ; what EC50 in AML5 proliferation assay value has been reported?
stdout: 0.095

stdin: Suppose we examine the binder Humanized VH3 x Humanized VL3 (antibody, V domains shown) VH: EVQLVESGGGLVQPGGSLRLSCAPSGFTFSNYGMAWVRQAPGKGLVWVSSIHSGGGDTYYRDSVKGRFTISRDNAKNTLYLQMNSLRAEDTAVYYCARGRTPTGYYFDHWGQGTMVTVSS VL: AIQLTQSPSSLSASVGDRVTITCRASEGIHNGLAWYQQKPGKAPKLLIYNANSLHSRVPSRFSGSGSGTDFTLTISSLQPEDFATYFCQQYYDYPLTFGQGTKLEIK ; what EC50 in AML5 proliferation assay value has been reported?
stdout: 0.051
